Molecular target: HIF-2α HIS TAG-PASB Domain (Homo sapiens)
Construct: 100 nM HIF-2α HIS TAG-PASB Domain
Test: HIF-2α Scintillation Proximity Assay (SPA)
Format: binding
VALUE_KIND: IC50

{"GIVEN_SMILES": "COCc1c(S(=O)(=O)C(F)F)ccc(Oc2cc(F)cc(Cl)c2)c1Cl", "MEASUREMENT_TARGET": "HIF-2α HIS TAG-PASB Domain (Homo sapiens)", "RESULT": "> 1 µM"}

###

Target: HIF-2α HIS TAG-PASB Domain (Homo sapiens, UniProt Q99814)
Construct: 100 nM HIF-2α HIS TAG-PASB Domain
Sequence (Q99814 240-350 limits assumed): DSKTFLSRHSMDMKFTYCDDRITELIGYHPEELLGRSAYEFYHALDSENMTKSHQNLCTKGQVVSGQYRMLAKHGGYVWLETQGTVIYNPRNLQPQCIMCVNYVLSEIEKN
Assay: HIF-2α Scintillation Proximity Assay (SPA)
Assay type: binding
Settings: probe displacement from HIF-2α PAS-B domain; read-out: Scintillation Proximity Assay IC50
pIC50: −log10 of the molar value.
Entries annotated with measured pIC50

{"MOLECULE": "N#Cc1cc(F)cc(-c2cnc(C(F)(F)F)c3c2C[C@@H](F)[C@H]3O)c1 [Compound 471]", "pIC50": "6.00 to 6.60"}
{"MOLECULE": "O=C1CCC(Oc2ccc(S(=O)(=O)C(F)(F)F)c3c2CC(F)(F)[C@H]3O)CN1 (some centres unmarked) [Compound 719]", "pIC50": "< 6.00"}
{"MOLECULE": "O=S(=O)(c1ccc(OC2=CC=CN3CC=NC23)c2c1C(O)C(F)(F)C2)C(F)(F)F (centres unmarked) [Compound 246]", "pIC50": "< 6.00"}
{"MOLECULE": "O=S(=O)(c1ccc(OC2CCOCC2)c2c1[C@@H](O)C(F)(F)C2)C(F)F [Compound 782]", "pIC50": "6.60 to 7.30"}
{"MOLECULE": "N#Cc1cc(F)cc(Oc2ccc3c(c2Br)C(N)C(F)(F)S3(=O)=O)c1 (centres unmarked) [Compound 376]", "pIC50": "> 7.30"}
{"MOLECULE": "CCCNc1ccc(S(=O)(=O)C(F)F)c2c1CC(F)(F)[C@H]2O [Compound 532]", "pIC50": "> 7.30"}
{"MOLECULE": "O=S1(=O)c2ccc(OC3CCOCC3)c(C(F)F)c2C(O)C1(F)F (centres unmarked) [Compound 400]", "pIC50": "< 6.00"}
{"MOLECULE": "O=S(=O)(c1ccc(Oc2cc(F)cc(Cl)c2)c2c1[C@H](O)C[C@@H]2CO)C(F)(F)F [Compound 281]", "pIC50": "6.00 to 6.60"}
